- Assay info: PK study in male Sprague-Dawley rats dosed once per day for five days, PO 10 mg/kg, 0.5% HPMC (Example 7)
- Type: in vivo
- Conditions: male, Sprague-Dawley, rat, in vivo, po, 10 mg/kg, Sprague-Dawley rats, day five of daily PO 10 mg/kg, 0.5% HPMC suspension; mean (n = 3); read-out: Cmax
Observable: Cmax (ng/mL)
Numbers only, in ng/mL.

Using known records, supply Cmax for "Cc1cc(Nc2cc(N)ncn2)c(=O)n2c1C(=O)NC21CCC2(CC2)CC1"
22800

====

- Assay info: PK study in male Sprague Dawley rats, IV 1 mg/kg and PO 10 mg/kg (Example 4)
- Format: in vivo
- Conditions: male, Sprague Dawley, rat, plasma, iv, 1 mg/kg, male SD rats, 1 mg/kg IV, at 24 h, mean (n = 3); read-out: Clast
Observable: concentration at 24 h
Show the value, then the unit it is measured in.

Using known records, supply concentration at 24 h for "Cc1cc(Nc2cc(N)ncn2)c(=O)n2c1C(=O)NC21CCC2(CC2)CC1"
350 ng/mL

====

- Assay info: PK study in male Sprague-Dawley rats dosed once per day for five days, PO 25 mg/kg, 0.5% HPMC (Example 8)
- Assay type: in vivo
- Conditions: male, Sprague-Dawley, rat, in vivo, po, 25 mg/kg, single PO 25 mg/kg dose, 0.5% HPMC suspension, individual animals, read-out: Clast
Observable: concentration at 24 h (ng/mL)
Give bare numbers, in ng/mL.

Using known records, supply concentration at 24 h for "Cc1cc(Nc2cc(N)ncn2)c(=O)n2c1C(=O)NC21CCC2(CC2)CC1"
3130

====

- Assay info: PK study in male Sprague-Dawley rats dosed once per day for five days, PO 25 mg/kg, 0.5% HPMC (Example 8)
- Assay type: in vivo
- Conditions: male, Sprague-Dawley, rat, in vivo, po, 25 mg/kg, after the last of five daily 25 mg/kg PO doses, 0.5% HPMC suspension, read-out: total systemic exposure (AUCinf)
Observable: AUC(0-inf) (µg·h/mL)
Answers are plain numbers, in µg·h/mL.

Using known records, supply AUC(0-inf) for "Cc1cc(Nc2cc(N)ncn2)c(=O)n2c1C(=O)NC21CCC2(CC2)CC1"
456

====

- Assay info: PK study in male Sprague-Dawley rats dosed once per day for five days, PO 10 mg/kg, 0.5% HPMC (Example 7)
- Assay type: in vivo
- Conditions: male, Sprague-Dawley, rat, in vivo, po, 10 mg/kg, Sprague-Dawley rats, day five of daily PO 10 mg/kg, 0.5% HPMC suspension; individual animals; read-out: Cmax
Observable: Cmax (ng/mL)
Numbers only, in ng/mL.

Using known records, supply Cmax for Cc1cc(Nc2cc(N)ncn2)c(=O)n2c1C(=O)NC21CCC2(CC2)CC1 [4ET-03-053]
24600

====

- Assay info: PK study in male Sprague-Dawley rats dosed once per day for five days, PO 10 mg/kg, 0.5% HPMC (Example 7)
- Format: in vivo
- Conditions: male, Sprague-Dawley, rat, in vivo, po, 10 mg/kg, Sprague-Dawley rats, day five of daily PO 10 mg/kg, 0.5% HPMC suspension; mean (n = 3)
Observable: AUC(0-t) (µg·h/mL)
Give bare numbers, in µg·h/mL.

Using known records, supply AUC(0-t) for "Cc1cc(Nc2cc(N)ncn2)c(=O)n2c1C(=O)NC21CCC2(CC2)CC1"
282
